B1: SPSB1 (parent)
chain: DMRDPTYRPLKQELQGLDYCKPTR

variants of: B1; assay: protein stability index of a GFP-peptide fusion (GPS, HEK-293T) (PSI 1-6); higher = more stable; settings: c terminus: a fixed tail appended;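 further: lentivirally expressed fusions sorted by FACS into six bins by GFP to DsRed ratio, PSI derived from sequencing read proportions per bin multiplied by bin number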
ASSAY_READOUT: protein stability index
// print number alone

Consider the following illustrative entries.
# MUTANT_DESIGNATION, ASSAY_READOUT, OBSERVED_VALUE
data = [
    ("P5K", "protein stability index", 3.28),
    ("K21P", "protein stability index", 3.95),
    ("D18E", "protein stability index", 2.76),
    ("P9Y", "protein stability index", 2.67),
]

# context switch: different variant, same protein stability index
The reported protein stability index of the variant K11I was 2.88

All values here come from the supplement of paper PMC10567573.
